Origin of values: the Deep4Chem optical property database

assay: solvent given as SMILES; conditions: in c1ccccc1
Task for the reader: assign each of the following compounds its reported absorption maximum.
Answer format: numeric, nm implied, no suffix.

Please give the measured absorption maximum for this compound: COc1ccc2c(=O)c3c([nH]c2c1)-c1ccccc1NC3(C)C
402

Please give the measured absorption maximum for this compound: CC(C)(C)c1cc2ccc3cccc4c3c2c(c1)c1nc2c3cc(C(C)(C)C)cc5ccc6cccc(c(=O)n2c41)c6c53
395

Please give the measured absorption maximum for this compound: CC(C)[Si]1(C(C)C)c2cc(C=O)ccc2-c2ccc(N(c3ccccc3)c3ccccc3)cc21
398

Please give the measured absorption maximum for this compound: COc1ccc(C(=O)/C=C/c2ccc(N(C)C)cc2)cc1OC
406
